All values here come from ChEMBL document CHEMBL1201862.

Please go through the items and note down their GI50.
tested on: M19-MEL; assay: NCI tumour cell line growth inhibition, 48 h
Calls of active or inactive are those of the source. Cut-off read from the data, not from the text of the source: active = GI50 up to about 1.1 µM and inactive = higher.

CN(C)CCNC(=O)c1cccc2nc3c(ccc4ccccc43)nc12	1.56 µM (inactive)

Give GI50 for each listed item.
1. CC1=C(C(=O)CC(=O)C(=O)Nc2ccccc2)Sc2ccccc2N1
2. O=C(C(=O)c1cc2ccccc2[nH]1)c1cc2ccccc2[nH]1
3. Cn1c(=O)nc2n(-c3ccc(F)cc3)c3ccccc3nc-2c1=O
4. O=C1Nc2cc(Cl)ccc2N=CC1NC(=O)C(c1ccccc1)c1ccccc1Cl (stereo unspecified)

Solution:
["> 100 µM (inactive)", "> 195 µM (inactive)", "2.89 µM (inactive)", "> 100 µM (inactive)"]

Exercise: Given the entry O=CC1CCC=CC1NC(=O)OCc1ccccc1 (stereo unspecified) , what GI50 was observed with M19-MEL?
Solution: 41.8 µM (inactive)
